Where do these numbers come from? They come from ChEMBL document CHEMBL1141565.

# MEASURED TARGET: C-C chemokine receptor type 3 (Homo sapiens) (UniProt P51677)
# Sequence (P51677 whole entry): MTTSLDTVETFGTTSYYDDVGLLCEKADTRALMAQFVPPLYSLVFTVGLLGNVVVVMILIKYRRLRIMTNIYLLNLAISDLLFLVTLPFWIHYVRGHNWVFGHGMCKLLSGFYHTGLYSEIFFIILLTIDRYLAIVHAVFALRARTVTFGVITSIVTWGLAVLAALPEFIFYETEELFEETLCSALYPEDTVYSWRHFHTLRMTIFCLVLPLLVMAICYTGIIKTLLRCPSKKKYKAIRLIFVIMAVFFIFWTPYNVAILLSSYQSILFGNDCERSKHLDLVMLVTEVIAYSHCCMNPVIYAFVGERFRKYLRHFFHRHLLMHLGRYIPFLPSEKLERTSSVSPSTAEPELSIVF
# METHOD NOTES: Binding affinity for human CCR3 at 10 uM
For each of the compounds below, state its inhibition.
State the value, then name its unit.

Please review the entries below; each comes with its answer.
COMPOUND	MEASURED TARGET	inhibition
Cc1ccc(C(=O)N[C@@H]2CCCC[C@@H]2NC(=O)CNC(=O)c2cccc(C(F)(F)F)c2)cc1 (racemic)	C-C chemokine receptor type 3 (Homo sapiens) (UniProt P51677)	57%
CC(C)c1ccc(CN[C@@H]2CCCC[C@@H]2NC(=O)CNC(=O)c2cccc(C(F)(F)F)c2)cc1 (racemic)	C-C chemokine receptor type 3 (Homo sapiens) (UniProt P51677)	55%
O=C(CNC(=O)c1cccc(C(F)(F)F)c1)N[C@H]1CCCC[C@@H]1NCc1ccc(Cl)cc1 (racemic)	C-C chemokine receptor type 3 (Homo sapiens) (UniProt P51677)	50%

Please find the next compound below.
Fill in: C-C chemokine receptor type 3 (Homo sapiens) (UniProt P51677) inhibition for Cc1ccc(CN[C@H]2CCCC[C@@H]2NC(=O)CNC(=O)c2cccc(C(F)(F)F)c2)c(C)c1 = 54%
